- experimental_target: FGFR2-WT (Homo sapiens, UniProt P21802)
- Sequence (P21802 22-821): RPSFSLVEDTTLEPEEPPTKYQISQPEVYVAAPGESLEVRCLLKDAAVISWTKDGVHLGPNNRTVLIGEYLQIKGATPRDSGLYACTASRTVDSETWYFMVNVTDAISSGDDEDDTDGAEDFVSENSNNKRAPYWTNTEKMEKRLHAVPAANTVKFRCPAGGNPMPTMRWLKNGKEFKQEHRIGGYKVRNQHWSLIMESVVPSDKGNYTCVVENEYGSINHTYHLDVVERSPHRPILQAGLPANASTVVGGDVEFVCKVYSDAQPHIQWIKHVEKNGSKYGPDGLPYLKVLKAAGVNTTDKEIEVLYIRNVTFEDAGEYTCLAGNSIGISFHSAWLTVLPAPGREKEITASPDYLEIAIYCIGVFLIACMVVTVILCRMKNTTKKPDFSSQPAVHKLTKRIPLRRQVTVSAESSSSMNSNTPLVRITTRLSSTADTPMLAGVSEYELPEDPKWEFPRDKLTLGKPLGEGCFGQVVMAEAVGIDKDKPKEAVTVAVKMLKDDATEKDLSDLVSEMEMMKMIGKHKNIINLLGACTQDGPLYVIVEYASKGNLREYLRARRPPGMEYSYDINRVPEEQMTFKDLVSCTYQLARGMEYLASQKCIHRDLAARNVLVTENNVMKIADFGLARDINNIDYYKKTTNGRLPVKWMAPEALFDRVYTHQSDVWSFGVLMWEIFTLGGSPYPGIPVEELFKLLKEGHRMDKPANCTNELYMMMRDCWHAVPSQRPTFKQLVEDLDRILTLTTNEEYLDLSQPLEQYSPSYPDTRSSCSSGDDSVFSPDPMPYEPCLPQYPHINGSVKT
- assay: Phosphorylated FGFR2-WT (pFGFR2-WT) cell assay, KATOIII cells
- study_conditions: Table 4
quantity_name: IC50
Form entry: enter the amount, then its unit.

Task: Which value of IC50 has been reported for CN[C@H]1CC[C@@H](n2ncc(-c3cc(Sc4ccccc4C#N)c4c(C#N)cnn4c3)c2C)CC1 [Example 117] in the records?
Output: 0.028 µM

Task: Which value of IC50 has been reported for Cc1c(-c2cc(Sc3cccc(F)c3C#N)c3c(C#N)cnn3c2)cnn1C1CCNCC1 [Example 130] in the records?
Output: 0.117 µM

Task: Which value of IC50 has been reported for N#Cc1cnn2cc(-c3cnn([C@H]4CCCNC4)c3)cc(Sc3ccccn3)c12 [Example 1] in the records?
Output: 0.025 µM

Task: Which value of IC50 has been reported for Cc1nc(Sc2cc(-c3cnn(C4CCN(C)CC4)c3C)cn3ncc(C#N)c23)ccc1F [Example 128] in the records?
Output: 0.041 µM

* * *

- experimental_target: FGFR2 (Homo sapiens)
- assay: FGFR wild type enzyme assay (HTRF KinEASE-TK), FGFR2
- study_conditions: Enz FGFR2 (nM), FGFR2 wild type enzyme assay
quantity_name: IC50 (nM)
Give the value, in units of nM, as a plain number.

Task: Which value of IC50 has been reported for C[C@@H](O)Cn1cc(-c2cc(Sc3ccccc3C#N)c3c(C#N)cnn3c2)cn1 in the records?
Output: 1

Task: Which value of IC50 has been reported for Cc1c(-c2cc(Sc3ccc(F)cc3C#N)c3c(C#N)cnn3c2)cnn1CCO in the records?
Output: 8

Task: Which value of IC50 has been reported for CN[C@]1(C)CC[C@H](n2ncc(-c3cc(Sc4ccccn4)c4c(C#N)cnn4c3)c2C)CC1 in the records?
Output: 2

Task: Which value of IC50 has been reported for CC(=O)N[C@H]1CC[C@@H](n2ncc(-c3cc(Sc4nc(F)ccc4F)c4c(C#N)cnn4c3)c2C)CC1 in the records?
Output: 1

Task: Which value of IC50 has been reported for N#Cc1ccccc1Sc1cc(-c2cnn(C(F)F)c2)cn2ncc(C#N)c12 in the records?
Output: 6

Task: Which value of IC50 has been reported for Cc1c(-c2cc(Sc3ccc(F)cc3C#N)c3c(C#N)cnn3c2)cnn1[C@H]1CC[C@H](OP(=O)(O)O)CC1 [Example 679] in the records?
Output: 1.6

Task: Which value of IC50 has been reported for Cn1ncc(-c2cc(Sc3ccccc3C#N)c3c(C#N)cnn3c2)c1N in the records?
Output: 2

Task: Which value of IC50 has been reported for Cc1nn([C@H]2CC[C@@H](N(C)C)CC2)c(C)c1-c1cc(Sc2ccccc2C#N)c2c(C#N)cnn2c1 in the records?
Output: 3

* * *

- experimental_target: FGFR2 (Homo sapiens, UniProt P21802)
- assay: FGFR wild type enzyme assay (HTRF KinEASE-TK), FGFR2
- study_conditions: Enz FGFR2 (nM), FGFR2 wild type enzyme assay
I'd appreciate it if you could supply IC50 values for the items below.
Form entry: enter the amount, then its unit.

Task: So what IC50 did Cc1c(-c2cc(Sc3cccc(F)c3C#N)c3c(C#N)cnn3c2)cnn1C1CCN(C)CC1 get with FGFR2 (Homo sapiens, UniProt P21802)?
Output: 10 nM

Task: So what IC50 did Cc1cccc(Sc2cc(-c3cnn(C)c3)cn3ncc(C#N)c23)c1C#N get with FGFR2 (Homo sapiens, UniProt P21802)?
Output: 7 nM

Task: So what IC50 did CC(=O)N1CC[C@@H](n2cc(-c3cc(Sc4ccccc4C#N)c4c(C#N)cnn4c3)cn2)C1 get with FGFR2 (Homo sapiens, UniProt P21802)?
Output: 1 nM

Task: So what IC50 did N#Cc1ccccc1Sc1cc(-c2cnn(C(F)(F)F)c2)cn2ncc(C#N)c12 get with FGFR2 (Homo sapiens, UniProt P21802)?
Output: 10 nM

Task: So what IC50 did CCn1cc(-c2cc(Sc3ccccc3C#N)c3c(C#N)cnn3c2)cn1 get with FGFR2 (Homo sapiens, UniProt P21802)?
Output: 1 nM

Task: So what IC50 did N#Cc1cnn2cc(-c3cnn([C@H]4CCCNC4)n3)cc(Sc3ncccc3F)c12 get with FGFR2 (Homo sapiens, UniProt P21802)?
Output: 13 nM

Task: So what IC50 did Cc1c(-c2cc(Sc3ccc(F)cc3C#N)c3c(C#N)cnn3c2)cnn1[C@@H]1CCN(C)C(C)(C)C1 get with FGFR2 (Homo sapiens, UniProt P21802)?
Output: 0.5 nM

Task: So what IC50 did CC(=O)N[C@H]1CC[C@@H](n2cc(-c3cc(Sc4ccc(F)cn4)c4c(C#N)cnn4c3)cn2)CC1 get with FGFR2 (Homo sapiens, UniProt P21802)?
Output: 3 nM

Task: So what IC50 did N#Cc1cnn2cc(-c3ccc(N4CCOCC4)nc3)cc(Sc3ncccc3F)c12 get with FGFR2 (Homo sapiens, UniProt P21802)?
Output: 1 nM

Task: So what IC50 did CC(=O)N1CCC(n2cc(-c3cc(Sc4ccc(F)cc4C#N)c4c(C#N)cnn4c3)cn2)CC1 get with FGFR2 (Homo sapiens, UniProt P21802)?
Output: 1 nM

Task: So what IC50 did C[C@@H](O)C(=O)N1CCC[C@@H](n2cc(-c3cc(Sc4ccccc4C#N)c4c(C#N)cnn4c3)cn2)C1 get with FGFR2 (Homo sapiens, UniProt P21802)?
Output: 1 nM

Task: So what IC50 did N#Cc1cnn2cc(-c3cnn(C[C@H](O)CO)c3)cc(Sc3ncccc3F)c12 get with FGFR2 (Homo sapiens, UniProt P21802)?
Output: 2 nM

Task: So what IC50 did N#Cc1ccccc1Sc1cc(-c2c[nH]nn2)cn2ncc(C#N)c12 get with FGFR2 (Homo sapiens, UniProt P21802)?
Output: 12 nM

Task: So what IC50 did N#Cc1cc(F)ccc1Sc1cc(-c2ccc(N3CCNCC3)nc2)cn2ncc(C#N)c12 get with FGFR2 (Homo sapiens, UniProt P21802)?
Output: 15 nM

Task: So what IC50 did CN1CCN(c2ccc(-c3cc(Sc4ccc(F)cc4C#N)c4c(C#N)cnn4c3)cn2)CC1 get with FGFR2 (Homo sapiens, UniProt P21802)?
Output: 1 nM

Task: So what IC50 did CN1C[C@H](n2cc(-c3cc(Sc4ccccc4C#N)c4c(C#N)cnn4c3)cn2)CCC1=O get with FGFR2 (Homo sapiens, UniProt P21802)?
Output: 1 nM

Task: So what IC50 did N#Cc1ccccc1Sc1cc(-c2cnn([C@H]3CCNC3)c2)cn2ncc(C#N)c12 get with FGFR2 (Homo sapiens, UniProt P21802)?
Output: 0.4 nM

Task: So what IC50 did Cc1c(-c2cc(Sc3ncc(F)cc3F)c3c(C#N)cnn3c2)cnn1C1CCN(C(=O)[C@H](C)O)CC1 get with FGFR2 (Homo sapiens, UniProt P21802)?
Output: 6 nM

Task: So what IC50 did C[C@@H](O)C(=O)N1CC[C@@H](n2cc(-c3cc(Sc4ccccc4C#N)c4c(C#N)cnn4c3)cn2)C1 get with FGFR2 (Homo sapiens, UniProt P21802)?
Output: 0.6 nM

Task: So what IC50 did CC(C)(CO)N1CC[C@H](n2cc(-c3cc(Sc4ncccc4F)c4c(C#N)cnn4c3)cn2)C1 get with FGFR2 (Homo sapiens, UniProt P21802)?
Output: 1 nM

Task: So what IC50 did Cc1c(-c2cc(Sc3ccccc3C#N)c3c(C#N)cnn3c2)cnn1C1CCN(C(=O)C(C)(C)O)CC1 get with FGFR2 (Homo sapiens, UniProt P21802)?
Output: 1 nM

Task: So what IC50 did Cc1c(-c2cc(Sc3ccc(F)cc3C#N)c3c(C#N)cnn3c2)cnn1[C@H]1CC[C@H](OC(=O)CN)CC1 get with FGFR2 (Homo sapiens, UniProt P21802)?
Output: 1 nM

Task: So what IC50 did N#Cc1ccccc1Sc1cc(-c2cnn([C@@H]3CCC(=O)NC3)c2)cn2ncc(C#N)c12 get with FGFR2 (Homo sapiens, UniProt P21802)?
Output: 0.5 nM

Task: So what IC50 did N#Cc1ccccc1Sc1cc(-c2cnn([C@@H]3CCNC3)c2)cn2ncc(C#N)c12 get with FGFR2 (Homo sapiens, UniProt P21802)?
Output: 0.5 nM

Task: So what IC50 did Cc1c(-c2cc(Sc3ccc(F)cc3C#N)c3c(C#N)cnn3c2)cnn1[C@H]1CCCN(c2ccccn2)C1 get with FGFR2 (Homo sapiens, UniProt P21802)?
Output: 8 nM

Task: So what IC50 did CN(C)[C@H]1CC[C@@H](n2cc(-c3cc(Sc4ncccc4F)c4c(C#N)cnn4c3)nn2)CC1 get with FGFR2 (Homo sapiens, UniProt P21802)?
Output: 12 nM

Task: So what IC50 did Cc1c(-c2cc(Sc3cc(Cl)ccc3C#N)c3c(C#N)cnn3c2)cnn1C1CCN(C)CC1 get with FGFR2 (Homo sapiens, UniProt P21802)?
Output: 2 nM

Task: So what IC50 did N#Cc1ccccc1Sc1cc(-c2cnn(CC(=O)N3CC[C@@H](O)C3)c2)cn2ncc(C#N)c12 get with FGFR2 (Homo sapiens, UniProt P21802)?
Output: 1 nM

Task: So what IC50 did Cc1c(-c2cc(Sc3ccc(F)cc3C#N)c3c(C#N)cnn3c2)cnn1C1CCN(CCO)CC1 get with FGFR2 (Homo sapiens, UniProt P21802)?
Output: 1 nM

Task: So what IC50 did CC(=O)N1[C@@H]2CC[C@H]1C[C@H](n1cc(-c3cc(Sc4ccc(F)cc4C#N)c4c(C#N)cnn4c3)c(C)n1)C2 get with FGFR2 (Homo sapiens, UniProt P21802)?
Output: 26 nM

Task: So what IC50 did CC(=O)N[C@H]1CC[C@@H](n2cc(-c3cc(Sc4ncccc4F)c4c(C#N)cnn4c3)c(C)n2)CC1 get with FGFR2 (Homo sapiens, UniProt P21802)?
Output: 6 nM

// data source = patent US20240270741A1
